Measured values drawn from PubChem BioAssay (NCI) for this set.

experiment_summary: NCI Yeast Anticancer Drug Screen. Data for the rad50 strain (AID 155)
condition_description: S. cerevisiae rad50 strain growth inhibition; at 50.0 µM
Experimental: Growth inhibition of yeast strains with defined genetic alterations is measured as a screen for potential anti-cancer activity. Selected strains with alterations in DNA damage repair or cell cycle control were exposed to compounds and growth inhibition was measured relative to vehicle treated controls. The strain used in this assay is rad50
Compounds without any hit were thinned out: in the full panel of roughly 79,000, 15% have a hit. Active and inactive are the calls of the source. Rule as the data show it: active = growth inhibition above about 70%; inactive = the rest.
// one of T for active, F for inactive, no free text

Sample answers from the record:
molecule	assigned_label
CSc1nc2c(c(=O)[nH]1)C1C=C(C)CCC1C(C)(C)C2 (stereo not given)	F
O=Cc1ccc(-c2nccc3c2[nH]c2ccccc23)o1	T
CC(=O)O[C@H]1[C@@H]2CC(C)(C)CC2=C(C=O)C2(C=O)CC12C (stereo not given in full)	T
COc1ccc2c(c1)[n+]([O-])c(-c1ccc(Cl)c(Cl)c1)c(N)[n+]2[O-]	T
CCC(/C=C/C(C)C1CCC2C3CC=C4C/C(=N/NC(N)=O)CCC4(C)C3CCC12C)C(C)C (stereo not given)	F

Called result for COC(=O)c1ccc(C)cc1C1CN=NC12Cc1cc(C)ccc1C2=O (stereo not given)
F

Called result for "Clc1ccc2ns[s+]c2c1"
T
